- System: LXFL 529
- PROTOCOL DETAILS: NCI tumour cell line growth inhibition, 48 h
The source made the active and inactive calls. No stated cut-off is given here; in the data, active = GI50 up to about 1.1 µM and inactive = higher.

| COMPOUND | GI50 |
| --- | --- |
| N#CC(C(=O)CCC(=O)Nc1cccc(C(F)(F)F)c1)c1ccc(Cl)cc1 (stereo not given) | > 100 µM (inactive) |
| COc1ccc(/C(Cl)=C(\C=O)c2ccccc2)cc1OC | 12.4 µM (inactive) |
| CC(C)(C)Sc1nnc(SC(C)(C)C)c2c(SC(C)(C)C)nnc(O)c12 | 10.6 µM (inactive) |
| COc1ccc(S(=O)(=O)NNS(C)(=O)=O)cc1OC | > 100 µM (inactive) |
| NC(=O)c1cn(Cc2ccccc2)c(=O)n1Cc1ccccc1 | > 100 µM (inactive) |
